- subject of test: Insulin-degrading enzyme (Homo sapiens) (UniProt P14735)
- Sequence (P14735 42-1019 limits assumed): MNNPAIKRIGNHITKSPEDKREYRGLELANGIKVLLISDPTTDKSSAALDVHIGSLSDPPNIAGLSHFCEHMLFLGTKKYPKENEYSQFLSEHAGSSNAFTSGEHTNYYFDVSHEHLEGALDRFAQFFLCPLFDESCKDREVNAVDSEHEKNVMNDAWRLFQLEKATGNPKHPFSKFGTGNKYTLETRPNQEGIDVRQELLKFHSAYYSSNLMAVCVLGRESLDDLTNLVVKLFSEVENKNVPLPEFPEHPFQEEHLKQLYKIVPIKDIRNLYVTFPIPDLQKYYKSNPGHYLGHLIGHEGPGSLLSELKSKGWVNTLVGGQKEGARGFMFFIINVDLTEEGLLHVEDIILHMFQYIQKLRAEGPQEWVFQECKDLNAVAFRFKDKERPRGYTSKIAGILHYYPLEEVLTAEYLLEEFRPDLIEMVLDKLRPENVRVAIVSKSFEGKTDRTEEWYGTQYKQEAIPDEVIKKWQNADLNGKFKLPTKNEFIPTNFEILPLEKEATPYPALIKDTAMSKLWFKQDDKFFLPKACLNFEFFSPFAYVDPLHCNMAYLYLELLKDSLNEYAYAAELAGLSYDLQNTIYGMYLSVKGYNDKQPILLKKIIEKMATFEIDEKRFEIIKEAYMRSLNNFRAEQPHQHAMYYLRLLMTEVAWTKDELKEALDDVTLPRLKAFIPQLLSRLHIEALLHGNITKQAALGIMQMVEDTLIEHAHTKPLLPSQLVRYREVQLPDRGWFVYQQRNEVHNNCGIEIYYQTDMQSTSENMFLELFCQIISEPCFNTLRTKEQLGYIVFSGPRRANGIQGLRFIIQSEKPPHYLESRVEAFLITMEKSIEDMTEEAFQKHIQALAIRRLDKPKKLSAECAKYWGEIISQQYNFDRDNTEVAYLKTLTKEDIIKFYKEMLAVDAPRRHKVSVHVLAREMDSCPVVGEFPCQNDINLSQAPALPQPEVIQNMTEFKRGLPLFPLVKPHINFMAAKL
- protocol details: exo-site inhibitors of human IDE, primary screen, biochemical, fluorescence anisotropy, probe displacement (AID 1259349);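 also: His-tagged human IDE residues 42-1019 made in E. coli with 30 nM FL-6b probe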
- condition description: purified IDE, FL-6b probe fluorescence polarization; at 20 µM
Screen size: about 17,000 compounds; about 1,100 (6.5%) were called active.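 The calls were made as follows: active = z-score of -3 or lower, meaning strong loss of probe binding signal; inactive = the rest.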 Only a selection was taken, and actives are over-represented in it overall.
Classes used: 1 for active, 0 for inactive

CCCNC(=O)C[C@@H]1CC[C@H]2[C@@H](COC[C@H](O)CN2C(=O)Nc2ccc(Cl)c(Cl)c2)O1	0
OC[C@H]1[C@@H](c2ccc(-c3ccccc3F)cc2)[C@@H]2CN(Cc3ccncc3)CCCCN12	0
COc1ccc2c3c([nH]c2c1)[C@@H](CO)N(C(=O)C1CC1)CC31CCN(C(=O)c2ccncc2)CC1	0
N#Cc1cccc(-c2ccc3c(c2)[C@H]2[C@H](CCN2Cc2ccc4c(c2)OCO4)[C@@H](CO)N3)c1	0
C[C@@H]1CN([C@H](C)CO)C(=O)CCCn2cc(nn2)CO[C@@H]1CN(C)C(=O)Nc1ccc2c(c1)OCO2	0
CCS(=O)(=O)NCC[C@H]1CC[C@@H](NC(=O)Nc2cc(Cl)cc(Cl)c2)[C@@H](CO)O1	0
COc1ccccc1NC(=O)N1[C@@H]2CNC[C@H]1C2c1ccc(-c2ccccc2C)cc1 (some centres not stated)	1
C[C@H](NC(=O)C[C@@H]1C[C@@H]2c3cc(NS(=O)(=O)c4ccc(F)cc4)ccc3O[C@@H]2[C@@H](CO)O1)c1ccccc1	0
O=C(CN1CCOCC1)N1C[C@@H]2N[C@H](C1)C2c1ccc(-c2ccncc2)cc1 (some centres not stated)	0
OC[C@@H]1[C@@H](c2ccc(-c3ccccc3F)cc2)[C@@H]2CN(Cc3cncnc3)CCCCN12	0
O=C(CN1CCOCC1)N1CCCCN2[C@@H](CO)[C@H](c3ccc(-c4ccccc4)cc3)[C@@H]2C1	0
Cc1ccc(S(=O)(=O)Nc2ccc3c(c2)C(=O)N([C@H](C)CO)C[C@@H](C)[C@H](CN(C)S(=O)(=O)c2cccs2)OCCCC[C@@H](C)O3)cc1	0

* * *

- subject of test: Insulin-degrading enzyme (Homo sapiens)
- protocol details: exo-site inhibitors of human IDE, primary screen, biochemical, fluorescence anisotropy, probe displacement (AID 1259349);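 also: His-tagged human IDE residues 42-1019 made in E. coli with 30 nM FL-6b probe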
- condition description: purified IDE, FL-6b probe fluorescence polarization; at 20 µM
Screen size: about 17,000 compounds; about 1,100 (6.5%) were called active.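 The calls were made as follows: active = z-score of -3 or lower, meaning strong loss of probe binding signal; inactive = the rest.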 What follows is part of a selection rich in actives, with near analogues and random picks from the rest.
Classes used: label 1 for active, label 0 for inactive

N#C[C@@H]1[C@@H](c2ccc(/C=C/c3ccccc3)cc2)[C@@H](CO)N1C(=O)C1CC1	label 0
N#C[C@H]1[C@@H](c2ccccc2C2=CCCCC2)[C@H](CO)N1C(=O)c1ccccn1	label 0
O=C(c1ccc(F)cc1)N1CC(=O)N2[C@H](CO)[C@H](c3ccc(-c4ccccc4F)cc3)[C@@H]2C1	label 0
C[C@@H]1CN([C@H](C)CO)C(=O)c2c(c3ccccc3n2C)-c2ccccc2CO[C@H]1CN(C)C(=O)[C@@H](Cc1ccccc1)N(C)C	label 0
O=C(C1CCCCC1)N1CC(=O)N2[C@H](CO)[C@H](c3ccc(-c4ccccc4F)cc3)[C@H]2C1	label 0
COc1cccc(-c2ccc([C@@H]3[C@@H](C#N)N(C(=O)c4ccccn4)[C@H]3CO)cc2)c1	label 1
COCC(=O)N1[C@H](CO)[C@@H](c2ccc(C#Cc3ccccc3F)cc2)[C@@H]1C#N	label 1
CCCNC(=O)N1[C@H](CO)[C@@H](c2ccc(-c3ccc(C(=O)N(C)C)cc3)cc2)[C@@H]1C#N	label 0
CC(=O)N1[C@@H](CO)[C@@H](c2ccccc2)[C@@H]1CN(C)C(=O)CN1CCOCC1	label 0
O=C(c1cccc(F)c1)N1CCCCN2[C@H](CO)[C@H](c3ccc(C#CC4(O)CCCC4)cc3)[C@H]2C1	label 0
O=C(C1CC1)N1CC(=O)N2[C@H](CO)[C@@H](c3ccc(-c4ccccc4F)cc3)[C@@H]2C1	label 1
O=C(Nc1cccc(F)c1)N1CC(=O)N2[C@H](C1)[C@H](c1ccc(-c3ccccc3F)cc1)[C@@H]2CO	label 0
N#C[C@@H]1N[C@H](CO)[C@@H]1c1ccc(/C=C/c2ccccc2)cc1	label 0
O=C(c1ccncc1)N1CCCCN2[C@H](CO)[C@H](c3ccc(-c4ccccc4)cc3)[C@H]2C1	label 1
CCCNC(=O)N1CC2(CN(C(=O)c3cnccn3)C2)c2c([nH]c3cc(OC)ccc23)[C@@H]1CO	label 0
N#C[C@@H]1[C@@H](c2ccc(-c3ccccc3F)cc2)[C@@H](CO)N1C(=O)c1ccccn1	label 1
N#C[C@H]1[C@H](c2ccccc2)[C@@H](CO)N1C(=O)c1cccnc1	label 0
CN(C)C(=O)c1ccc(-c2ccc(C3[C@@H]4CN(C(=O)Nc5ccccc5)C[C@H]3N4)cc2)cc1 (some centres not stated)	label 0
CN(C)C(=O)c1cccc(-c2ccc([C@H]3[C@H]4CN(C(=O)Cc5ccccc5)CC(=O)N4[C@H]3CO)cc2)c1	label 0
CCCC#Cc1ccc([C@H]2[C@H]3CN(C(=O)Nc4ccc(F)cc4)CC(=O)N3[C@H]2CO)cc1	label 0
N#C[C@@H]1[C@@H](c2ccc(C3=CCCCC3)cc2)[C@@H](CO)N1C(=O)c1cccc(F)c1	label 0
O=C(CN1CCOCC1)N1CCCCN2[C@@H](CO)[C@H](c3ccc(/C=C/c4ccccc4)cc3)[C@@H]2C1	label 1
